# tested.on: pooled human IgG
quantity.kind: Enzyme Activity Endpoint Assay (purified): Fab′2 (ng/µL)
Number in ng/µL, nothing else.

# protein, numeric.readout
data = [
    ("PRT-59 (protein) MANQEIRYSEVTPYHVTSVWTKGVTPPANFTQGEDVFHAPYVANQGWYDITKTFNGKDDLLCGAATAGNMLHWWFDQNKDQIKRYLEEHPEKQKINFNGEQMFDVKEAIDTKNHQLDSKLFEYFKEKAFPYLSTKHLGVFPDHVIDMFINGYRLSLTNHGPTPVKEGSKDPRGGFFDAVFTRGDQSKLLTSRHDFKEKNLKEISDLIKKELTEGKALGLSHTYANVRINHVINLWGADFDSNGNLKAIYVTDSDSNASIGMKKYFVGVNSAGKVAISAKEIKEDNIGAQVLGLFTLSTGQDSWNQTN", 6),
]

Lab note: next protein to report on.
Look up Enzyme Activity Endpoint Assay (purified): Fab′2: PRT-83 (protein) MANQEIRYSEETPYHVTSVWTKGVTPPEKFTQGEDVFHAPYVANQGWYDITKTFNGKDDLLCGAATAGNMLHWWFDQNKDQIEAYLSKHPEKQKIMFGDQELLDVRKAINTKDSQTNSELFNYFRDKAFPNLSARRLGVMPDLVLDMFINGYRLNVTKTQTTDVNETYQEKDKRGGIFDAVFTRGDQSKLLTSRHDFKEKTLNEISDLIKKELTEGKALGISHTYANVRINHVINLWGADFNSEGNLEAIYVTDSDSNASIGMKKYFVGVNSAGKVAISAKEIEEENIGAQVLGLFTLSTGQDIWQQTN
0
